# System: SK-MEL-5
# ASSAY_PROTOCOL: NCI tumour cell line growth inhibition, 48 h
Active and inactive are the calls of the source. Cut-off read from the data, not from the text of the source: active = GI50 up to about 1.1 µM and inactive = higher.
Listed here are compounds together with their documented GI50.

SMILES_STRING: Clc1ccccc1NN(Cc1ccccn1)c1ccccc1Cl
GI50: 14.5 µM (inactive)

SMILES_STRING: c1ccc(C(c2ccccc2)c2cccnc2)cc1
GI50: 83.8 µM (inactive)

SMILES_STRING: Cc1ccc(S(=O)(=O)OI(O)CC(F)(F)F)cc1
GI50: > 100 µM (inactive)

SMILES_STRING: CCOC(=O)CC(=O)ON(C)C(C)=O
GI50: > 100 µM (inactive)

---

Listed here are molecules together with their documented GI50.
# Test system: LOX IMVI
# ASSAY_PROTOCOL: NCI tumour cell line growth inhibition, 48 h
The source made the active and inactive calls. No stated cut-off is given here; in the data, active = GI50 up to about 1.1 µM and inactive = higher.

SMILES_STRING: COc1cc(C(=O)Nc2c3ccccc3nc3ccccc23)cc(OC)c1OC
GI50: > 100 µM (inactive)
//
SMILES_STRING: COc1cc2[nH]c(=O)c3cc(-c4ccccc4)cc4c(Cl)nc(c1OC)c2c43
GI50: 6.78 µM (inactive)
//
SMILES_STRING: O=C1C=CC(=O)C(CNc2ccc(C(=O)OCc3ccccc3)cc2)=C1
GI50: 4.14 µM (inactive)
//
SMILES_STRING: Cc1cc([N+](=O)[O-])ccc1Sc1c2ccccc2nc2ccccc12
GI50: 20 µM (inactive)
//
SMILES_STRING: CC(C)CCC1(CCN)C(=O)NC(=O)NC1=O
GI50: > 100 µM (inactive)
//
SMILES_STRING: CCOC(=O)c1cc(=O)n(C)c(=O)n1C
GI50: > 100 µM (inactive)

---

# Test system: LOX IMVI
# ASSAY_PROTOCOL: NCI tumour cell line growth inhibition, 48 h
Activity calls are given as the source filed them. No stated cut-off is given here; in the data, active = GI50 up to about 1.1 µM and inactive = higher. Where a SMILES comes first, the peptide text is derived from it. The star is where a group is joined. Boc = CC(C)(C)OC(=O)*
Possible outcomes: active, inactive

COMPOUND: CN(NC(=O)/C(=C/C=C/c1ccccc1)NC(=O)c1ccccc1)C1=C(Cl)C(=O)[N+](c2ccccc2)=CC1
ANSWER_LABEL: inactive
--
COMPOUND: O=[N+]([O-])c1ccc(/C(=N/c2ccccc2)SS/C(=N\c2ccccc2)c2ccc([N+](=O)[O-])o2)o1
ANSWER_LABEL: inactive
--
COMPOUND: CCN1CCN(c2nc3ccccc3nc2C(=O)c2ccc(OC)cc2)CC1
ANSWER_LABEL: inactive
--
COMPOUND: O=C1C(c2c(O)[nH]c3ccc(I)cc23)=Nc2ccccc21
ANSWER_LABEL: inactive
--
COMPOUND: O=[N+]([O-])c1ccc(Cc2nc3cc4ccccc4cc3[nH]2)cc1C(F)(F)F
ANSWER_LABEL: inactive
--
COMPOUND: COc1ccc(/C=C2/N/C(=N\N=C/C(O)C(O)C(O)CO)NC2=O)cc1 (stereo unspecified)
ANSWER_LABEL: inactive
--
COMPOUND: CC(=O)N/C(=C\c1cccc([N+](=O)[O-])c1)c1nc2ccc3c(c2[nH]1)C(=O)c1ccccc1C3=O
ANSWER_LABEL: inactive
--
COMPOUND: NC(Cc1ccc(N(CCCl)CCCl)cc1)C(=O)NC(CCC(=O)O)C(=O)O (stereo unspecified)
ANSWER_LABEL: inactive
--
COMPOUND: CC(C)NC(=O)OCc1c(COC(=O)NC(C)C)n(C)c2c1ccc1ccsc12
ANSWER_LABEL: inactive
--
COMPOUND: COc1cc2ccc(CC#N)cc2cc1OC
ANSWER_LABEL: inactive
--
COMPOUND: OC1(C(Sc2cc(C(F)(F)F)cc(C(F)(F)F)c2)Sc2cc(C(F)(F)F)cc(C(F)(F)F)c2)C=CCCC1 (stereo unspecified)
ANSWER_LABEL: inactive
--
COMPOUND: O=C1OC(OC/C(Br)=C(\Br)COC2OC(=O)C(Cl)=C2Cl)C(Cl)=C1Cl (stereo unspecified)
ANSWER_LABEL: inactive
--
COMPOUND: O=C(O)c1cc2c(cc1CC(Cc1ccc3c(c1)CCCC3)C(=O)O)CCCC2 (stereo unspecified)
ANSWER_LABEL: inactive
--
COMPOUND: CC(=O)Oc1ccc2cc(Oc3cc(Cl)c(Cl)cc3Cl)c(=O)oc2c1
ANSWER_LABEL: inactive
--
COMPOUND: Cn1cnc([N+](=O)[O-])c1Sc1nccn1-c1cccc2ccccc12
ANSWER_LABEL: inactive
--
COMPOUND: CC1Cc2c(N)nc(NN)nc2NC1=O (stereo unspecified)
ANSWER_LABEL: inactive
--
COMPOUND: CCCC1NC(C#N)(C#N)C(CCC)NC1(C#N)C#N (stereo unspecified)
ANSWER_LABEL: active
--
COMPOUND: C#CCN1CCN(C(=S)N/N=C(\C)c2ccccn2)CC1
ANSWER_LABEL: active
--
COMPOUND: COC(=O)C(C)NC(=O)C(CCSC)NC(=O)C(Cc1ccccc1)NC(=O)OC(C)(C)C (stereo not drawn) (Boc-Phe-Met-Ala-OMe; configuration not given here)
ANSWER_LABEL: inactive
--
COMPOUND: CN(C)CC1CC/C(=C\c2ccc3c(c2)OCO3)C1=O (stereo unspecified)
ANSWER_LABEL: inactive
--
COMPOUND: COc1ccc2sc(-n3nc4ccccc4c3Nc3nc4ccc(OC)cc4s3)nc2c1
ANSWER_LABEL: inactive

---

Listed here are molecules together with their documented GI50.
# System: M14
# ASSAY_PROTOCOL: NCI tumour cell line growth inhibition, 48 h
The source made the active and inactive calls. No stated cut-off is given here; in the data, active = GI50 up to about 1.1 µM and inactive = higher. Non-standard residues stand in square brackets, D forms with d. Residues, ends and D or L forms follow the SMILES beside them. ξ: configuration not given here. *: point of attachment. dThr(3ξ) = CC(O)[C@@H](N)C(=O)O; dNMeL = CN[C@H](CC(C)C)C(=O)O; OBn = c1ccc(CO*)cc1; ξLac = CC(O)C(=O)O

MOLECULE: Nc1ncc(Cc2nn3c(COc4ccc(Cl)cc4)nnc3s2)s1
GI50: > 100 µM (inactive)
//
MOLECULE: CC1=NN(c2nc(N)nc(CC#N)n2)C(C)(C)C1
GI50: > 100 µM (inactive)
//
MOLECULE: COC(=O)C(Cc1c(C2Nc3ccccc3C2CC(NC(C)=O)C(=O)OC)[nH]c2ccccc12)NC(C)=O (centres undefined)
GI50: > 100 µM (inactive)
//
MOLECULE: CN(C)/C=C/c1c2c(nc3ccccc13)C(=O)c1cccnc1C2=O
GI50: 0.218 µM (active)
//
MOLECULE: COc1cc(/C=C2/C[C@H]3[C@@H]4CC=C5C[C@@H](OC(C)=O)CC[C@]5(C)[C@H]4CC[C@]3(C)NC2=O)cc(OC)c1OC
GI50: 36.5 µM (inactive)
//
MOLECULE: NCCCCNCCCNC(=O)CNC(=O)CC(O)C(N)CCCC(NC(=O)C(CN)NC(=O)C(O)CNC(=O)CC(N)c1ccc(O)cc1)C(=O)O (centres undefined)
GI50: > 10 µM (inactive)
//
MOLECULE: N#C[C@](CO)(NC(=O)OCc1ccccc1)C(F)F
GI50: > 100 µM (inactive)
//
MOLECULE: CC(=O)OC(C)[C@@H](NC(=O)[C@@H](CC(C)C)N(C)C(=O)[C@@H]1CCCN1C(=O)C(C)O)C(=O)OCc1ccccc1 (some centres undefined) (H-[ξLac]P[dNMeL][dThr(3ξ)](Ac)-OBn)
GI50: > 100 µM (inactive)
//
MOLECULE: COC(=O)Nc1cc(OCCCOC(C)=O)c2[nH]c(C(=O)OC)cc2c1C[C@H](O)CO
GI50: > 100 µM (inactive)
//
MOLECULE: O=S(=O)(O)c1cc(S(=O)(=O)O)c2c(/N=N/c3cccc4ccccc34)c(O)ccc2c1
GI50: > 100 µM (inactive)
//
MOLECULE: CSc1ccc(NC(=S)NN(C)C)cc1
GI50: > 10 µM (inactive)
//
MOLECULE: CN(NC(=O)c1cccs1)C1=NCCCCN1
GI50: > 100 µM (inactive)
//
MOLECULE: CC(=O)Oc1ccc2cc(Oc3cc(Cl)c(Cl)cc3Cl)c(=O)oc2c1
GI50: 18.2 µM (inactive)
//
MOLECULE: Cc1cccc(C2=NC(C)(C)C(C)(C)N=C2c2cccc(C)n2)n1
GI50: 71.6 µM (inactive)
//
MOLECULE: CCOC(=O)c1cc(=O)n(C)c(=O)n1C
GI50: > 100 µM (inactive)
//
MOLECULE: Nc1nc2c(c(=O)[nH]1)NC(CO)CN2 (centres undefined)
GI50: > 100 µM (inactive)
//
MOLECULE: COc1cc(/C=C2\C[C@H]3[C@@H]4CC=C5C[C@@H](O)CC[C@]5(C)[C@H]4CC[C@]3(C)C2=O)cc(OC)c1OC
GI50: 24.4 µM (inactive)
//
MOLECULE: COc1c(C)c2c(c3c1c(=O)c1ccccc1n3C)C=CC(C)(C)O2
GI50: 15.5 µM (inactive)
//
MOLECULE: CCOc1ccc2nc(NC(=O)c3c/c(=N\NC(=O)C[N+](C)(C)C)c4ccc(O)cc4o3)sc2c1
GI50: 1.63 µM (inactive)
